B1: TPR 5TU (parent)
chain: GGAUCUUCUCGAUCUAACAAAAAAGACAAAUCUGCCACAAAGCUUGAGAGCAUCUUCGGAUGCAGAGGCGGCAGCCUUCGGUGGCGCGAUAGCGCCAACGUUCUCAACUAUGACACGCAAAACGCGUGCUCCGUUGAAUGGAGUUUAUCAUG

variants of: B1; assay: polymerase ribozyme fitness, log enrichment relative to wild type (log ratio); higher = more active; in vitro selection for triplet polymerase activity
Fewer inactive variants are shown than the library holds.
measurementLabel: polymerase ribozyme fitness (log ratio)

change | qualifierSign | quantitativeResult
A21U C27U C35A C57A G59C G74C G86U A89G U101G | ≤ | -4.2
G140A G143U | ≤ | -4.2
C72U U134A | = | -2.32
U82C G86A | = | -2.06
A17U A28U C38U | ≤ | -4.2
A24U C125A | = | -0.572
C5A A12G A23C G84A | = | -4.02
A23G G46C G50A G92A C118U A142U | ≤ | -4.2
A21C G59C C85U G100C U130A G136A U144G | ≤ | -4.2
U45C G70C A91G C99U G136C | ≤ | -4.2
G59A C149A | = | -3.65
